Measured IC50 values are reported for all entries that follow.
- assayed system: T1, recombinant human CEACAM-1 (R&D Systems cat. no. 2244-CM-050) (human, UniProt P13688 35-428)
- T1 construct: Coated on the ELISA plate at 0.5 ug/ml
- T1 sequence (looked up): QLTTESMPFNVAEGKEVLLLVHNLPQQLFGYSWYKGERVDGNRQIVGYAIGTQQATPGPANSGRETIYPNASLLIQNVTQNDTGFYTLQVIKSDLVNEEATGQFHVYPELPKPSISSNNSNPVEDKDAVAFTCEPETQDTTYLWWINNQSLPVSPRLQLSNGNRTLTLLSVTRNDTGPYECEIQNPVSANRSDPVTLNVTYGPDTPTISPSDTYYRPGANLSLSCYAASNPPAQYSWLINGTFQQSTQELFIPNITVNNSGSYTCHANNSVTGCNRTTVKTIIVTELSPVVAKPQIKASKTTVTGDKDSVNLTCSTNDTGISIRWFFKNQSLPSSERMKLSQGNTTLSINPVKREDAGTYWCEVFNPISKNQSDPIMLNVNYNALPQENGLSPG
- run description: competition ELISA on coated recombinant human CEACAM-1; competitor biotinylated chimeric CM-10 IgG1
Please reply with the bare figure in µg/mL and do not write the unit itself.

Recorded IC50, per entry:
binder	experimental result
humanized anti-CEACAM-1 variant VH5/VK1, IgG1 (antibody, V domains shown, Tested as human IgG1 / kappa antibody; only the variable regions are tied to this variant) VH: QVQLVQSGAEVKKPGASVKVSCKASGYAFTNNLIEWVRQAPGQGLEWIGVINPGSGDTNYNEKFKGRVTMTADKSISTAYMELSRLRSDDTAVYYCARGDYYGGFAVDYWGQGTTVTVSS VL: DIQMTQSPSSLSASVGDRVTITCRTSQDIGNYLNWYQQKPGKAVKLLIYYTSRLHSGVPSRFSGSGSGTDYTLTISSLQQEDIATYFCQQGKSLPRTFGGGTKVEIK	0.77
humanized anti-CEACAM-1 variant VH4/VK1, IgG1 (antibody, V domains shown, Tested as human IgG1 / kappa antibody; only the variable regions are tied to this variant) VH: QVQLVQSGAEVKKPGASVKVSCKASGYAFTNNLIEWVRQAPGQGLEWIGVINPGSGDTNYNEKFKGRATLTADKSISTAYMELSRLRSDDTAVYYCARGDYYGGFAVDYWGQGTTVTVSS VL: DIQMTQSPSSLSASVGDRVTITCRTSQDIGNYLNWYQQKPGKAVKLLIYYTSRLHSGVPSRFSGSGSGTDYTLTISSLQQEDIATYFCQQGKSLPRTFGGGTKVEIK	0.73

Next:
Query: For the binder humanized anti-CEACAM-1 variant VH5/VK2, IgG1 (antibody, V domains shown, Tested as human IgG1 / kappa antibody; only the variable regions are tied to this variant) VH: QVQLVQSGAEVKKPGASVKVSCKASGYAFTNNLIEWVRQAPGQGLEWIGVINPGSGDTNYNEKFKGRVTMTADKSISTAYMELSRLRSDDTAVYYCARGDYYGGFAVDYWGQGTTVTVSS VL: DIQMTQSPSSLSASVGDRVTITCRTSQDIGNYLNWYQQKPGKAVKLLIYYTSRLHSGVPSRFSGSGSGTDYTLTISSLQPEDIATYFCQQGKSLPRTFGGGTKVEIK , what IC50 is on record?
Response: 0.72
